Origin of values: PubChem BioAssay AID1159580

assay: chemical genetic growth profiling, strain panel (AID 1159580);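 note: tested at 20 µM; growth read once vehicle control cultures reached saturation at 30 °C; 1 = growth at the plate median or of vehicle wells; lower values mean less growth of the strain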; details: S. cerevisiae deletion strains, growth OD, locus YDR150W, strain NUM1, hits give low values
Hit rate of the full screen: of about 5,500 compounds, about 2,000 (36%) were called active. Inconclusive results (about 18%) are left out. The list shows a part of the results.
Property: normalized growth; scope: individual molecules
Lab note: jot the number down without any unit.

- Molecule: "O=C(NNC(=S)Nc1ccc(F)cc1)c1ccccc1Cl"
  normalized growth: 0.987
- Molecule: "OC(CNCCc1cccs1)COc1ccccc1 (stereo not given)"
  normalized growth: 0.976
- Molecule: "CC(=O)c1c(O)c(C)c(O)c2c1OC1=CC(=O)C(C(C)=O)C(=O)C12C (stereo not given)"
  normalized growth: 1.01
- Molecule: "c1ccc2c(c1)CCc1c-2[nH]c2ccccc12"
  normalized growth: 0.704

normalized growth recorded for this molecule, Cc1[nH]ncc1-c1ccccc1 , is 1.01

Form field normalized growth, entry NC[C@H](O)c1ccc(O)c(O)c1 : 1

The measured normalized growth associated with O=C(O)/C=C/C=C/c1ccccc1 reads 0.966

Lab note: CC(C)(C)c1ccc(C(O)CCCN2CCC(C(O)(c3ccccc3)c3ccccc3)CC2)cc1 (stereo not given) gave normalized growth of 1.01

Data point: O=C(N/N=C\C=C\c1ccccc1)c1ccccc1-n1cccc1 ; normalized growth = 0.996
